ASSAY_METHOD_TEXT: yeast display, Sf9 membrane polyspecificity reagent, FACS + sequencing; frameworks hold sequencing errors

ITEM_SEQUENCE	polyreactivity (PSR sort gate)
QVQLVESGGGLVQAGGSLRLSCAASGGTIRYYAMGWYSQAPWKERELVAAISVGGGRTYYADSVKGRFTISRDNAKNTVYLQMNSLKPEDTAVYYCAADYASWSNWGYEYWGQGTQVTVSS	high polyreactivity
QVQLVESGGGLVQAGGSLRLSCAASGFILSVYAMGWYRQAPGTETELVAAISKRGGSTNYADSVKGRFTISRDNAKDTVYLQMNSLKPEDTAVYYCAKARAGFLYDHWGQGTQVTVSS	high polyreactivity
